B1: F1*; the commonest letter at each place (parent)
chain: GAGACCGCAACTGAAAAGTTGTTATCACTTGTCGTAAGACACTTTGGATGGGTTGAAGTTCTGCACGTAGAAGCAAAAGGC

Variants of: B1
test protocol: fraction ligated after 30 min (ligated reads / total reads); higher = more ligase activity
details: with F1*sub RNA substrate (template-directed ligation), 42 °C
Provide the recorded fraction ligated for the entries that follow.
One number for each entry.

Examples with their reported fraction ligated follow.
> print(dat)
                        biopolymer.sequence  numeric.value
1  GAGACCGCAACTGAAAAGTTGTTATCACTTGTCGTAAAACACGTTGGATGGGTTGAAGTTCTGCACGTAGAAGCAAAAGGC            0.8
2  GAGACCGCAACTGAAAAGTTGTTATCACTTGACATAAGACACTTTGGATGGGTTGAAGTTCTGCACGTAGAAGCAAAAGGC          0.809
3  GAGACCGCAACTGAAAAGTTGTTATCACTTCTCGTAAGACACTTTGGATGGGTTGAAGTTCTGCACGTAGAAGCAAAAGGC           0.79
4  GAGACCGCAACTGAAAAGTTGTTATCACTTGTCGTAAGACAATTTCGATGGGTTGAAGTTCTGCACGTAGAAGCAAAAGGC          0.811
5  GAGACCGCAACTGAAAAGTTGTTATCACTGGTCGTAAGTCACTTTGGATGGGTTGAAGTTCTGCACGTAGAAGCAAAAGGC          0.779
6  GAGACCGCAACTGAAAAGTTGTTATCACTTGTCGTAAGACTCATTGGATGGGTTGAAGTTCTGCACGTAGAAGCAAAAGGC          0.822
7  GAGACCGCAACTGAAAAGTTGTTATCAGTTGTCGTGAGACACTTTGGATGGGTTGAAGTTCTGCACGTAGAAGCAAAAGGC          0.812
8  GAGACCGCAACTGAAAAGTTGTCACCACTTGTCGTAAGACACTTTGGATGGGTTGAAGTTCTGCACGTAGAAGCAAAAGGC          0.782

Please report fraction ligated for every entry that follows.
1. GAGACCGCAACTGAAAAGTTGTTATCACTTGTCGTAACTCACTTTGGATGGGTTGAAGTTCTGCACGTAGAAGCAAAAGGC
2. GAGACCGCAACTGAAAAGTTGTTATCACTTGTAGTAAGACACTATGGATGGGTTGAAGTTCTGCACGTAGAAGCAAAAGGC

0.806
0.805
